Tested on: B cell lymphoma cell KARPAS422
Test: Analysis of cell proliferation
Format: cell-based
Details: Homo sapiens, KARPAS-422, 336 h; B cell lymphoma cell KARPAS422 after 14 days of treatment; read-out: antiproliferative activities (IC50 values)
pIC50: −log10 of the molar value.
measurement-name: pIC50

[[record]]
compound = "Cc1nc(OC(C)C)ncc1-c1cnc(NCc2c(F)ccc3c2CCO3)n2cnnc12 [Example 9]"
readout_number = 9.22

[[record]]
compound = "Cc1nn(C(C)C)cc1-c1cnc(NCc2c(F)ccc3c2CCO3)n2cnnc12 [Example 4]"
readout_number = 9.52

[[record]]
compound = "Cc1nc(C2CC2)ccc1-c1cnc(NCc2c(F)ccc3c2CCO3)n2cnnc12 [Example 6]"
readout_number = 9.70

[[record]]
compound = "Cc1ncc(-c2cnc(NCc3c(F)ccc4c3CCO4)n3cnnc23)c(C)n1 [Example 3]"
readout_number = 9.15

[[record]]
compound = "[O-][n+]1cccc(-c2cnc(NCc3c(F)ccc4c3CCO4)n3cnnc23)c1 [Example 10]"
readout_number = 7.76

[[record]]
compound = "COc1cc(C)c(-c2cnc(NCc3c(F)ccc4c3CCO4)n3cnnc23)cn1 [Example 5]"
readout_number = 9.10

[[record]]
compound = "Cc1ncccc1-c1cnc(NCc2c(F)ccc3c2CCO3)n2cnnc12 [Example 2]"
readout_number = 8.52

[[record]]
compound = "Cc1cc(-c2cnc(NCc3c(F)ccc4c3CCO4)n3cnnc23)n(C)n1 [Example 1]"
readout_number = 9.40

[[record]]
compound = "Cc1nc(C2CC2)ncc1-c1cnc(NCc2c(F)ccc3c2CCO3)n2cnnc12 [Example 8]"
readout_number = 9.22

[[record]]
compound = "OCc1ncccc1-c1cnc(NCc2c(F)ccc3c2CCO3)n2cnnc12 [Example 7]"
readout_number = 8.52

[[record]]
compound = "Cc1ncccc1-c1cnc(NCc2c(F)ccc3occc23)n2cnnc12 [Example 207]"
readout_number = 9.00

